Target: T1, Human CLEC-7A (Dectin-1) (human, UniProt Q9BXN2-2 66-201, limits assumed)
T1 construct: Bought protein; also called C-type lectin domain family 7 member A
T1 sequence (looked up): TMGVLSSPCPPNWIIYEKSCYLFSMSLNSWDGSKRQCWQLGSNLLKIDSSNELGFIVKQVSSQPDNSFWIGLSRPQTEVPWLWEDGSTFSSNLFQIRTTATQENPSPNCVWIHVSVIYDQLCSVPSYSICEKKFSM
Test: IgG binding ELISA on coated antigen, absorbance at 450 nm;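 also: specificity panel of related human receptors, coated alongside human LOX1 as the binding positive control, with an isotype human IgG1-TM antibody setting the nonspecific background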
Readout name: binding result

LX5140092_N>D IgG1-TM (antibody, V domains shown, Whole human IgG1-TM; Heavy chain N96D (Kabat) variant of LX5140092; also called LX5140092_D) VH: QVQLVQSGAEVKKPGASVKVSCKVSGYTLTELSMHWVRQAPGKGLEWMGGFDPEDWKYHLSQKFQGRVTMTEDTSTDTAYMELSSLRSEDTAVYYCATPDGTHQGGVRGWDYYYGMDVWGQGTTVTVSS VL: QSVVTQPPSVSGAPGQRVTISCTGSSSNIGAGYDVHWYQQLPGTAPKLLIYGNSNRPSGVPDRFSGSKSGTSASLAITGLQAEDEADYYCQSYDSSLSGWVFGGGTKLTVL; no binding
LX5140108 IgG1-TM (antibody, V domains shown, Whole human IgG1-TM (L234F/L235E/P331S)) VH: QVQLVQSGAEVKKPGASVKVSCKVSGYTLTELSMHWVRQAPGKGLEWMGGFDPEDWSNHVSQKFQGRVTMTEDTSTDTAYMELSSLRSEDTAVYYCLTSTGRQGKGVRGWDYYYGMDVWGQGTTVTVSS VL: QSVVTQPPSVSGAPGQRVTISCTGSSSNIGAGYDVHWYQQLPGTAPKLLIYGNSNRPSGVPDRFSGSKSGTSASLAITGLQAEDEADYYCQSYDSSLSGWVFGGGTKLTVL; no binding
LX5140110 IgG1-TM (antibody, V domains shown, Whole human IgG1-TM (L234F/L235E/P331S); also called LOX514110; LOX514_110) VH: QVQLVQSGAEVKKPGASVKVSCKVSGYTLTELSMHWVRQAPGKGLEWMGGFDPEDFKYHTHQKFQGRVTMTEDTSTDTAYMELSSLRSEDTAVYYCALVWGTQGKGVRGWDYYYGMDVWGQGTTVTVSS VL: QSVVTQPPSVSGAPGQRVTISCTGSSSNIGAGYDVHWYQQLPGTAPKLLIYGNSNRPSGVPDRFSGSKSGTSASLAITGLQAEDEADYYCQSYDSSLSGWVFGGGTKLTVL; no binding
